- targetEntity: recombinant full-length human prolyl endopeptidase (PREP) (Homo sapiens, UniProt P48147)
- Construct: To recombinant full-length human prolyl endopeptidase (PREP, R&D-Systems, 4308-SE); purchased R&D-Systems 4308-SE
- assay: Biochemical human prolyl endopeptidase (PREP) assay with fluorescently labelled substrate
- details: substrate Z-Gly-Pro-AMC 50 μM, 32° C., 60 min; some as mean values from multiple independent determinations
Documented log10(IC50) across a set of compounds
valueKind: log10(IC50) (log10 of the value in nM)

INSERT INTO assay_data (compound, experimentalresult) VALUES
  ('O=C(C1CCc2nn(Cc3ccnc(C(F)(F)F)c3F)c(=O)n21)N1CC[C@H](F)C1 (mixture of isomers) [Example 178]', 0.11),
  ('O=C([C@@H]1CCCc2nn(Cc3cccc(Cl)n3)c(=O)n21)N1CC[C@H](F)C1', -0.03),
  ('O=C([C@@H]1CCCc2nn(CC3(c4cccc(Cl)n4)CC3)c(=O)n21)N1CCC(F)(F)C1', 0.16),
  ('O=C(C1CCc2nn(Cc3ccnc(C(F)(F)F)c3F)c(=O)n21)N1CC[C@H](F)C1 (single isomer, unassigned) [Example 179]', 2.78),
  ('O=C([C@@H]1CCCc2nn(Cc3csc(C(F)(F)F)n3)c(=O)n21)N1C[C@@H](F)[C@@H](F)C1', 0.32),
  ('O=C([C@@H]1CCCc2nn(CC3(c4ccc(F)cc4)CC3)c(=O)n21)N1CC[C@H](F)C1', -0.49);

====

- targetEntity: recombinant full-length human prolyl endopeptidase (PREP) (Homo sapiens, UniProt P48147)
- Construct: To recombinant full-length human prolyl endopeptidase (PREP, R&D-Systems, 4308-SE)
- assay: Biochemical human prolyl endopeptidase (PREP) assay with fluorescently labelled substrate
- details: substrate Z-Gly-Pro-AMC 50 μM, 32° C., 60 min; some as mean values from multiple independent determinations
pIC50: −log10 of the molar value.
Catalogue of pIC50 values
valueKind: pIC50

INSERT INTO results (molecule, experimentalresult) VALUES
  ('O=C(C1CCC(C(F)(F)F)c2nn(Cc3ccc(C(F)(F)F)nc3)c(=O)n21)N1CC[C@H](F)C1 (mixture of isomers) [Example 271]', 8.96),
  ('O=C(C1CC(C(F)(F)F)Cc2nn(Cc3ccnc(C(F)(F)F)c3F)c(=O)n21)N1CC(F)C1 (single isomer, unassigned) [Example 255]', 7.82),
  ('O=C([C@@H]1CCCc2nn(Cc3cc(F)c(F)cc3F)c(=O)n21)N1CC(F)C1 [Example 491]', 9.36),
  ('O=C([C@@H]1CCCc2nn(CCc3ccc(F)cc3)c(=O)n21)N1CCC(F)(F)C1 [Example 519]', 8.85);

====

# IC50 listing for each entry below
- targetEntity: recombinant full-length human prolyl endopeptidase (PREP) (Homo sapiens, UniProt P48147)
- Construct: To recombinant full-length human prolyl endopeptidase (PREP, R&D-Systems, 4308-SE)
- Sequence (P48147 1-710): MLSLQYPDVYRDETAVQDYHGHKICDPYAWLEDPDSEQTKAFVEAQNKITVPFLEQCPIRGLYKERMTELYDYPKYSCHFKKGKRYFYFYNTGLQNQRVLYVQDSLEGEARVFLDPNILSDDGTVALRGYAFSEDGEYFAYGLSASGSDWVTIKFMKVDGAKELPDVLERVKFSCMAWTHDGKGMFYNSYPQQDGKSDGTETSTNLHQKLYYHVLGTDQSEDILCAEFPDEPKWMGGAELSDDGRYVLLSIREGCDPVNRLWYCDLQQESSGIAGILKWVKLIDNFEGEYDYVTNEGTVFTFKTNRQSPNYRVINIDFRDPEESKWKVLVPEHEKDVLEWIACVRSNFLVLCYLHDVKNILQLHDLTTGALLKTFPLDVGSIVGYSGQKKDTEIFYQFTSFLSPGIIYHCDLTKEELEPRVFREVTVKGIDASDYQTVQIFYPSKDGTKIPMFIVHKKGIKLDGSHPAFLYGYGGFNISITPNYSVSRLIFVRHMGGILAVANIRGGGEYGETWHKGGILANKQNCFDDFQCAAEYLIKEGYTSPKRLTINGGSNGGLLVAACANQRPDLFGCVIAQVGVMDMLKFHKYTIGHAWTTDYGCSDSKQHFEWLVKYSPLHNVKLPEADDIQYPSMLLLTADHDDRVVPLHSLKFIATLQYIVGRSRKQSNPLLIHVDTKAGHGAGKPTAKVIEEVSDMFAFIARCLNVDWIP
- assay: Biochemical human prolyl endopeptidase (PREP) assay with fluorescently labelled substrate
- details: substrate Z-Gly-Pro-AMC 50 μM, 32° C., 60 min; some as mean values from multiple independent determinations
valueKind: IC50

INSERT INTO measurements (compound, experimentalresult) VALUES
  ('O=C(C1CC(C(F)(F)F)Cc2nn(Cc3ccnc(C(F)(F)F)c3F)c(=O)n21)N1C[C@@H](F)[C@@H](F)C1 (single isomer, unassigned) [Example 259]', '17 nM'),
  ('O=C(C1CC(C(F)(F)F)Cc2nn(Cc3ccc(C(F)(F)F)nc3)c(=O)n21)N1CC(O)C1 (single isomer, unassigned) [Example 234]', '120 nM'),
  ('Cc1ccc(Cn2nc3n(c2=O)[C@H](C(=O)N2CCC[C@H]2C#N)CCC3)cc1 [Example 109]', '0.21 nM'),
  ('O=C(C1CCCc2nn(Cc3ccc(F)c(C(F)(F)F)c3)c(=O)n21)N1CCCC1 (racemic) [Example 66]', '0.38 nM'),
  ('O=C([C@@H]1CCCc2nn(CC3(c4ccc(F)cc4)CC3)c(=O)n21)N1CCC(F)(F)C1 [Example 353]', '2.3 nM'),
  ('COc1ccc(C2(Cn3nc4n(c3=O)[C@H](C(=O)N3CCC(F)(F)C3)CCC4)CC2)cc1 [Example 529]', '0.96 nM'),
  ('O=C([C@@H]1CCC(F)(F)c2nn(Cc3ncc(F)cc3F)c(=O)n21)N1CCC(F)(F)C1 [Example 588]', '18 nM'),
  ('O=C(C1CC(C(F)(F)F)Cc2nn(Cc3ccnc(C(F)(F)F)c3F)c(=O)n21)N1CCC(F)(F)C1 (racemic) [Example 251]', '3.4 nM'),
  ('O=C(C1CCCc2nn(Cc3noc(-c4cccc(C(F)(F)F)c4)n3)c(=O)n21)N1CCCC1 (racemic) [Example 69]', '210 nM'),
  ('CC1Cc2nn(Cc3ccc(C(F)(F)F)nc3)c(=O)n2C(C(=O)N2C[C@@H](F)[C@@H](F)C2)C1 (single isomer, unassigned) [Example 338]', '1.5 nM'),
  ('O=C(O)c1ccc(Cn2nc3n(c2=O)C(C(=O)N2CCCC2)CCC3)cc1 (racemic) [Example 154]', '790 nM'),
  ('Cc1ccc(Cn2nc3n(c2=O)C(C(=O)N2CC(C(F)(F)F)C2)CCC3)cc1 (racemic) [Example 124]', '14 nM'),
  ('O=C(C1CCC(C(F)(F)F)c2nn(Cc3ncccc3F)c(=O)n21)N1CC[C@H](F)C1 (mixture of isomers) [Example 273]', '7.6 nM'),
  ('O=C(C1CCCc2nn(Cc3ccc(Cl)cn3)c(=O)n21)N1CCCC1 (racemic) [Example 33]', '7.7 nM'),
  ('CC1CCC(C(=O)N2CC[C@H](F)C2)n2c1nn(Cc1ccc(C(F)(F)F)nc1)c2=O (mixture of isomers) [Example 220]', '1.5 nM'),
  ('O=C([C@@H]1CCCc2nn(Cc3ccc(Cl)nc3)c(=O)n21)N1CCC2CC21 (single isomer, unassigned) [Example 197]', '235 nM'),
  ('O=C([C@@H]1CCCc2nn(Cc3ccc(C(F)(F)F)nc3)c(=O)n21)N1CC(F)C(F)C1 (single isomer, unassigned) [Example 553]', '575 nM');
